MEASUREMENT_TARGET: T1, human CD25 (human, UniProt P01589 22-213, limits assumed)
T1 construct: Recombinant soluble human CD25, coated on plates (ELISA) or injected over captured antibody (BIAcore); also called hCD25; IL2-R alpha
T1 sequence (looked up): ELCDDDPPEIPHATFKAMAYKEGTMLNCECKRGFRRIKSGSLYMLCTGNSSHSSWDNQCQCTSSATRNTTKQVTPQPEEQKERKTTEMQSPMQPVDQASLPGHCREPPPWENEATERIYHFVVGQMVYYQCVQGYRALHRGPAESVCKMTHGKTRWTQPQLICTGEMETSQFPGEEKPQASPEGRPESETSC
ASSAY_COMMENT: SPR (BIAcore)
Listing of entries alongside the reported Kd.
READOUT_LABEL: Kd (nM)

- Variant C9 (antibody, name in Kabat numbering, V domains shown, Isotype as printed: G1 fa) VH: QVQLVQSGAEVKKPGSSVKVSCKASGYTFTSYRMHWVRQAPGQGLEWIGYIRPKRGYTQYNQKFKDKATITADESTNTAYMELSSLRSEDTAVYYCARGGGVFDYWGQGTLVTVSS VL: DIQMTQSPSTLSASVGDRVTITCSASSSISYMHWYQQKPGKAPKLLIYTTSNLASGVPARFSGSGSGTEFTLTISSLQPDDFATYYCHQRSTYPLTFGQGTKVEVK: 0.181
- Variant C12 (antibody, name in Kabat numbering, V domains shown, Isotype as printed: G1 fa) VH: QVQLVQSGAEVKKPGSSVKVSCKASGYTFTSYRMHWVRQAPGQGLEWIGYISPRRGYTQYNQKFKDKATITADESTNTAYMELSSLRSEDTAVYYCARGGGVFDYWGQGTLVTVSS VL: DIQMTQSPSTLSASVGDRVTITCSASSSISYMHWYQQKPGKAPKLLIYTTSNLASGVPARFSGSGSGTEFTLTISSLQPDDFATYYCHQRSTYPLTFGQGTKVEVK: 0.155
- Variant C16 (antibody, name in Kabat numbering, V domains shown, Isotype as printed: G1 fa; also called RNR-SE) VH: QVQLVQSGAEVKKPGSSVKVSCKASGYTFTSYRMHWVRQAPGQGLEWIGYIRPNRGYTEYNQKFKDKATITADESTNTAYMELSSLRSEDTAVYYCARGGGVFDYWGQGTLVTVSS VL: DIQMTQSPSTLSASVGDRVTITCSASSSISYMHWYQQKPGKAPKLLIYTTSELASGVPARFSGSGSGTEFTLTISSLQPDDFATYYCHQRSTYPLTFGQGTKVEVK: 0.022
